assay: SAD study: plasma and urine pharmacokinetics after a single oral dose; type: in vivo, human; settings: human, plasma, po, 10 mg
endpoint label: Cmax (ng/mL)
// return numeric value only (unit: ng/mL, not printed)

**Q:** Assign Cmax to the following record: CC(=O)O.NC(=O)c1cnc(N[C@@H]2CCCC[C@@H]2N)nc1Nc1cccc(-n2nccn2)c1 [PRT062607]
**A:** 10.5

* * *

test: SAD study: plasma and urine pharmacokinetics after a single oral dose; format: in vivo, human; conditions: human, plasma, oral
endpoint label: half-life

**Q:** Assign half-life to the following record: CC(=O)O.NC(=O)c1cnc(N[C@@H]2CCCC[C@@H]2N)nc1Nc1cccc(-n2nccn2)c1 [PRT062607]
**A:** 57 to 94 h

* * *

assay: SAD study: plasma and urine pharmacokinetics after a single oral dose; format: in vivo, human; settings: human, plasma, po, 10 mg
endpoint label: half-life (days)
// return numeric value only (unit: days, not printed)

**Q:** Assign half-life to the following record: CC(=O)O.NC(=O)c1cnc(N[C@@H]2CCCC[C@@H]2N)nc1Nc1cccc(-n2nccn2)c1
**A:** 2.38

* * *

experiment: SAD study: plasma and urine pharmacokinetics after a single oral dose; assay type: in vivo, human; conditions: human, plasma, po, 30 mg
endpoint label: half-life (h)
// return numeric value only (unit: h, not printed)

**Q:** Assign half-life to the following record: CC(=O)O.NC(=O)c1cnc(N[C@@H]2CCCC[C@@H]2N)nc1Nc1cccc(-n2nccn2)c1 [PRT062607]
**A:** 56.7

* * *

test: SAD study: plasma and urine pharmacokinetics after a single oral dose; format: in vivo, human; conditions: human, plasma, po, 10 mg
endpoint label: AUC(0-t) (ng·h/mL)
// return numeric value only (unit: ng·h/mL, not printed)

**Q:** Assign AUC(0-t) to the following record: CC(=O)O.NC(=O)c1cnc(N[C@@H]2CCCC[C@@H]2N)nc1Nc1cccc(-n2nccn2)c1
**A:** 150

* * *

type: in vivo, human; conditions: human, plasma, oral, 11 mg
endpoint label: AUC (ng·h/mL)
// return numeric value only (unit: ng·h/mL, not printed)

**Q:** Assign AUC to the following record: CC(=O)O.NC(=O)c1cnc(N[C@@H]2CCCC[C@@H]2N)nc1Nc1cccc(-n2nccn2)c1
**A:** 507

* * *

assay: SAD study: plasma and urine pharmacokinetics after a single oral dose; assay type: in vivo, human; settings: human, plasma, po, 100 mg
endpoint label: Tmax (h)
// return numeric value only (unit: h, not printed)

**Q:** Assign Tmax to the following record: CC(=O)O.NC(=O)c1cnc(N[C@@H]2CCCC[C@@H]2N)nc1Nc1cccc(-n2nccn2)c1
**A:** 2

* * *

assay: SAD study: plasma and urine pharmacokinetics after a single oral dose; format: in vivo, human; conditions: human, plasma, po, 30 mg
endpoint label: Tmax
The number alone won't do; follow it with the unit.

**Q:** Assign Tmax to the following record: CC(=O)O.NC(=O)c1cnc(N[C@@H]2CCCC[C@@H]2N)nc1Nc1cccc(-n2nccn2)c1 [PRT062607]
**A:** 1 h

* * *

experiment: SAD study: plasma and urine pharmacokinetics after a single oral dose; assay type: in vivo, human; conditions: human, plasma, po, 3 mg
endpoint label: Tmax
The number alone won't do; follow it with the unit.

**Q:** Assign Tmax to the following record: CC(=O)O.NC(=O)c1cnc(N[C@@H]2CCCC[C@@H]2N)nc1Nc1cccc(-n2nccn2)c1
**A:** 1 h

* * *

assay type: in vivo, human; conditions: human, plasma, oral, 110 mg, Cmax, MAD day 10, 110 mg once daily; mean (SD)
endpoint label: Cmax (ng/mL)
// return numeric value only (unit: ng/mL, not printed)

**Q:** Assign Cmax to the following record: CC(=O)O.NC(=O)c1cnc(N[C@@H]2CCCC[C@@H]2N)nc1Nc1cccc(-n2nccn2)c1
**A:** 557

* * *

test: SAD study: plasma and urine pharmacokinetics after a single oral dose; type: in vivo, human; conditions: human, plasma, po, 100 mg
endpoint label: AUC(0-t) (ng·h/mL)
// return numeric value only (unit: ng·h/mL, not printed)

**Q:** Assign AUC(0-t) to the following record: CC(=O)O.NC(=O)c1cnc(N[C@@H]2CCCC[C@@H]2N)nc1Nc1cccc(-n2nccn2)c1 [PRT062607]
**A:** 5400

* * *

type: in vivo, human; conditions: human, plasma, oral, 33 mg, Cmax, MAD day 10, 33 mg once daily; mean (SD)
endpoint label: Cmax (ng/mL)
// return numeric value only (unit: ng/mL, not printed)

**Q:** Assign Cmax to the following record: CC(=O)O.NC(=O)c1cnc(N[C@@H]2CCCC[C@@H]2N)nc1Nc1cccc(-n2nccn2)c1
**A:** 118

* * *

format: in vivo, human; settings: human, plasma, oral, 66 mg, Cmax, MAD day 10, 66 mg once daily; mean (SD)
endpoint label: Cmax (ng/mL)
// return numeric value only (unit: ng/mL, not printed)

**Q:** Assign Cmax to the following record: CC(=O)O.NC(=O)c1cnc(N[C@@H]2CCCC[C@@H]2N)nc1Nc1cccc(-n2nccn2)c1
**A:** 317
